The values you see were collected from patent US20210045385A1.

System: Italian ryegrass (Lolium mutiflorum)
Experiment: Test C postemergence, visual plant response rating
Type: in vivo
Conditions: Test C, postemergence, 125 g ai/ha
Known Ryegrass, Italian plant response rating (0 to 100 scale) of a selection of compounds
Reported Property: Ryegrass, Italian plant response rating (0 to 100 scale)

- Compound: "CON=C(c1csc(C)c1)c1c(O)c(C)nn(C)c1=O [Compound 151]"
  Measured On: "Italian ryegrass (Lolium mutiflorum)"
  Value Reported: 20
- Compound: "C#CCON=C(c1cccc(OC(F)F)c1)c1c(O)c(C)nn(C)c1=O [Compound 201]"
  Measured On: "Italian ryegrass (Lolium mutiflorum)"
  Value Reported: 60
- Compound: "CO/N=C(/c1c(O)c(C)nn(C)c1=O)c1cccc2cc(Cl)ccc12 [Compound 159]"
  Measured On: "Italian ryegrass (Lolium mutiflorum)"
  Value Reported: 80
- Compound: "C#CCON=C(c1cccc(OC)c1)c1c(O)c(C)nn(C)c1=O [Compound 203]"
  Measured On: "Italian ryegrass (Lolium mutiflorum)"
  Value Reported: 30
- Compound: "C=CCO/N=C(\\c1c(O)c(C)nn(C)c1=O)c1cccc2cc(Cl)ccc12 [Compound 243]"
  Measured On: "Italian ryegrass (Lolium mutiflorum)"
  Value Reported: 40

====

Known Foxtail, Giant plant response rating (0 to 100 scale) of a selection of molecules
Tested on: foxtail, giant (giant foxtail, Setaria faberi)
Experiment: Test C preemergence, visual plant response rating
Format: in vivo
Conditions: Test C, 125 g ai/ha, 0 is no effect, 100 is complete control
Reported Property: Foxtail, Giant plant response rating (0 to 100 scale)

- Molecule: "CCO/N=C(/c1c(O)c(C)nn(C)c1=O)c1cccc2cc(Cl)ccc12 [Compound 244]"
  Measured On: "foxtail, giant (giant foxtail, Setaria faberi)"
  Value Reported: 100
- Molecule: "CON=C(c1cc(Cl)cc(Cl)c1Cl)c1c(O)c(C)nn(C)c1=O [Compound 214]"
  Measured On: "foxtail, giant (giant foxtail, Setaria faberi)"
  Value Reported: 100
- Molecule: "CO/N=C(\\c1cc(Cl)c(F)c(Cl)c1)c1c(O)c(C)nn(C)c1=O [Compound 290]"
  Measured On: "foxtail, giant (giant foxtail, Setaria faberi)"
  Value Reported: 20
- Molecule: "CO/N=C(/c1ccc(F)c(Cl)c1)c1c(O)c(C)nn(C)c1=O [Compound 218]"
  Measured On: "foxtail, giant (giant foxtail, Setaria faberi)"
  Value Reported: 0
- Molecule: "CON=C(c1cc(Cl)cc(Cl)c1F)c1c(O)c(C)nn(C)c1=O [Compound 299]"
  Measured On: "foxtail, giant (giant foxtail, Setaria faberi)"
  Value Reported: 100
- Molecule: "CO/N=C(\\c1ccc(F)c(Cl)c1)c1c(O)c(C)nn(C)c1=O [Compound 219]"
  Measured On: "foxtail, giant (giant foxtail, Setaria faberi)"
  Value Reported: 0
- Molecule: "CC(C)O/N=C(/c1c(O)c(Cl)nn(C)c1=O)c1ccc(F)c2ccccc12 [Compound 209]"
  Measured On: "foxtail, giant (giant foxtail, Setaria faberi)"
  Value Reported: 100
- Molecule: "C=CCO/N=C(/c1c(O)c(C)nn(C)c1=O)c1cccc2cc(Cl)ccc12 [Compound 246]"
  Measured On: "foxtail, giant (giant foxtail, Setaria faberi)"
  Value Reported: 80
- Molecule: "CO/N=C(\\c1ccc(Cl)c(Cl)c1)c1c(O)c(C)nn(C)c1=O [Compound 217]"
  Measured On: "foxtail, giant (giant foxtail, Setaria faberi)"
  Value Reported: 0
- Molecule: "C#CCON=C(c1cccc(OCC(F)(F)F)c1)c1c(O)c(C)nn(C)c1=O [Compound 197]"
  Measured On: "foxtail, giant (giant foxtail, Setaria faberi)"
  Value Reported: 10

====

Tested on: kochia (Bassia scoparia)
Experiment: Test C postemergence, visual plant response rating
Assay type: in vivo
Conditions: Test C, postemergence, 125 g ai/ha
Known Kochia plant response rating (0 to 100 scale) of a selection of compounds
Reported Property: Kochia plant response rating (0 to 100 scale)

- Compound: "CO/N=C(\\c1c(O)c(C)nn(C)c1=O)c1cc(SC)cc2ccccc12"
  Value Reported: 30
- Compound: "CCCCO/N=C(\\c1cc(Cl)cc(Cl)c1Cl)c1c(O)c(C)nn(C)c1=O"
  Value Reported: 10
- Compound: "CO/N=C(/c1c(O)c(C)nn(C)c1=O)c1cccc2cc(Cl)ccc12 [Compound 159]"
  Value Reported: 80
- Compound: "C#CCO/N=C(\\c1cc(Cl)cc(Br)c1)c1c(O)c(C)nn(C)c1=O"
  Value Reported: 100
- Compound: "CON=C(c1cccc(OCC(F)(F)F)c1)c1c(O)c(C)nn(C)c1=O"
  Value Reported: 0

====

Known Ragweed plant response rating (0 to 100 scale) of a selection of compounds
System: ragweed (common ragweed, Ambrosia elatior)
Experiment: Test A postemergence, visual plant response rating
Format: in vivo
Details: 500 g ai/ha, postemergence; 0 is no effect, 100 is complete control
Reported Property: Ragweed plant response rating (0 to 100 scale)

- Compound Smiles: "CO/N=C(/c1c(O)c(C)nn(C)c1=O)c1ccc(OC)c2ccccc12"
  Value Reported: 30
- Compound Smiles: "CON=C(c1c(OC(C)=O)c(C)nn(C)c1=O)c1cccc2ccccc12"
  Value Reported: 90
- Compound Smiles: "CO/N=C(\\c1ccccc1C(C)C)c1c(O)c(C)nn(C)c1=O"
  Value Reported: 70
- Compound Smiles: "CON=C(c1cccc(C)c1)c1c(O)c(Cl)nn(C)c1=O"
  Value Reported: 80
- Compound Smiles: "CON=C(c1c(O)c(C)nn(C)c1=O)c1ccc(Cl)c2ccccc12"
  Value Reported: 80

====

Tested on: ragweed (common ragweed, Ambrosia elatior)
Test: Test A preemergence, visual plant response rating
Assay type: in vivo
Details: 500 g ai/ha Preemergence; approx. 10 days
Known Ragweed plant response rating (0 to 100 scale) of a selection of compounds
Reported Property: Ragweed plant response rating (0 to 100 scale)

- Compound: "C#CCO/N=C(\\c1c(O)c(C)nn(C)c1=O)c1cccc2ccccc12 [Compound 83]"
  Value Reported: 100
- Compound: "CO/N=C(/c1ccccc1Cl)c1c(O)c(C)nn(C)c1=O [Compound 63]"
  Value Reported: 70
- Compound: "CCc1ccccc1/C(=N\\OC)c1c(O)c(C)nn(C)c1=O [Compound 69]"
  Value Reported: 40
- Compound: "CON=C(c1c(O)c(C)nn(C)c1=O)c1cccc2ccc(Cl)cc12 [Compound 111]"
  Value Reported: 100
- Compound: "CON=C(c1cccc(C2CC2)c1)c1c(O)c(C)nn(C)c1=O [Compound 123]"
  Value Reported: 80
- Compound: "CO/N=C(\\c1csc(C)c1)c1c(O)c(C)nn(C)c1=O [Compound 44]"
  Value Reported: 0
- Compound: "CCO/N=C(\\c1cccc(Cl)c1)c1c(O)c(C)nn(C)c1=O [Compound 8]"
  Value Reported: 100
- Compound: "CCO/N=C(\\c1c(O)c(Cl)nn(C)c1=O)c1cccc2ccccc12 [Compound 146]"
  Value Reported: 100
- Compound: "CO/N=C(\\c1c(C)cccc1F)c1c(O)c(C)nn(C)c1=O [Compound 39]"
  Value Reported: 30
- Compound: "C#CCO/N=C(/c1c(O)c(C)nn(C)c1=O)c1cc(Br)cc2ccccc12 [Compound 112]"
  Value Reported: 90
- Compound: "CO/N=C(/c1c(O)c(C)nn(C)c1=O)c1ccc(OC)c2ccccc12 [Compound 142]"
  Value Reported: 20
- Compound: "CO/N=C(\\c1cc(C)ccc1Cl)c1c(O)c(C)nn(C)c1=O [Compound 38]"
  Value Reported: 30
- Compound: "CON=C(c1c(O)c(C)nn(C)c1=O)c1ccc(Cl)c2ccccc12 [Compound 40]"
  Value Reported: 80
- Compound: "C=CCc1ccccc1C(=NOC)c1c(O)c(C)nn(C)c1=O [Compound 121]"
  Value Reported: 50
- Compound: "CO/N=C(\\c1cccc(C)c1F)c1c(O)c(C)nn(C)c1=O [Compound 50]"
  Value Reported: 90
- Compound: "CON=C(c1cccc(Cl)c1)c1c(O)c(C)n[nH]c1=O (mixture of isomers) [Compound 143]"
  Value Reported: 0
- Compound: "CO/N=C(/c1cccc(Cl)c1)c1c(O)c(C)nn(C)c1=O [Compound 11]"
  Value Reported: 50
- Compound: "CON=C(c1c(O)c(C)nn(C)c1=O)c1cccc2sccc12 [Compound 58]"
  Value Reported: 80
- Compound: "CCO/N=C(/c1ccccc1C)c1c(O)c(C)nn(C)c1=O [Compound 15]"
  Value Reported: 90

====

Test system: kochia (Bassia scoparia)
Assay: Test C postemergence, visual plant response rating
Type: in vivo
Conditions: Test C, postemergence, 125 g ai/ha
Text: […]
Known Kochia plant response rating (0 to 100 scale) of a selection of molecules
Reported Property: Kochia plant response rating (0 to 100 scale)

- Molecule: "C#CCO/N=C(\\c1c(O)c(C)nn(C)c1=O)c1cc(Cl)cc2ccccc12"
  Value Reported: 80
- Molecule: "C#CCON=C(c1cccc(OC(F)F)c1)c1c(O)c(C)nn(C)c1=O"
  Value Reported: 70
- Molecule: "C#CCO/N=C(\\c1c(O)c(Cl)nn(C)c1=O)c1ccc(F)c2ccccc12"
  Value Reported: 80
- Molecule: "C=CCO/N=C(/c1c(O)c(C)nn(C)c1=O)c1cccc2cc(Cl)ccc12"
  Value Reported: 20
- Molecule: "CO/N=C(/c1cc(Cl)cc(Br)c1)c1c(O)c(C)nn(C)c1=O"
  Value Reported: 100
- Molecule: "Cc1nn(C)c(=O)c(/C(=N/OC(C)C)c2cc(Cl)cc(Cl)c2F)c1O"
  Value Reported: 100
- Molecule: "CCON=C(c1cc(Cl)cc(Br)c1)c1c(O)c(C)nn(C)c1=O [Compound 181]"
  Value Reported: 80
- Molecule: "CO/N=C(\\c1cccc(/C=C/Cl)c1)c1c(O)c(C)nn(C)c1=O"
  Value Reported: 30
- Molecule: "CON=C(c1cc(Cl)cc(Cl)c1F)c1c(O)c(C)nn(C)c1=O"
  Value Reported: 100
